Source: PubChem BioAssay AID1963867

Test system: KRAS-mutant PDC tumor spheroid with HUVEC/MSC, viability
Experiment: Anticancer human tumor 327498-153-R-J2-PDC patient-derived uterine carcinosarcoma cell line growth inhibition [KRAS2]
Conditions: second compound 3.16 µM; first compound 0.0316 µM; stronger effect = lower value
endpoint-name: viability, T/C

Check out these entries, answers already filled in.
compound | viability, T/C
CC1(C)CCC(CN2CCN(c3ccc(C(=O)NS(=O)(=O)c4ccc(NCC5CCOCC5)c([N+](=O)[O-])c4)c(Oc4cnc5[nH]ccc5c4)c3)CC2)=C(c2ccc(Cl)cc2)C1 + CNCc1ccccc1-c1csc(C(C)Nc2nc(C)nc3cc(OC)c(OC)cc23)c1 | 1.08%
CCNC(=O)CC1N=C(c2ccc(Cl)cc2)c2cc(OC)ccc2-n2c(C)nnc21 (stereo not given) + CNCc1ccccc1-c1csc(C(C)Nc2nc(C)nc3cc(OC)c(OC)cc23)c1 | 1.88%
CC1COCCN1c1cc(-c2ccnn2C)c2ccnc(-c3ccn[nH]3)c2n1 (stereo not given) + CNCc1ccccc1-c1csc(C(C)Nc2nc(C)nc3cc(OC)c(OC)cc23)c1 | 0.07%
COc1cc2nccc(Oc3ccc(NC(=O)C4(C(=O)Nc5ccc(F)cc5)CC4)cc3)c2cc1OC + CC1OCC2(CCN(c3cnc(Sc4ccnc(N)c4Cl)c(N)n3)CC2)C1N | 29.9%

Query viability, T/C for COc1cc2nccc(Oc3ccc(NC(=O)C4(C(=O)Nc5ccc(F)cc5)CC4)cc3)c2cc1OC + C=CC(=O)N1CCN(c2nc(OCC3CCCN3C)nc3c2CCN(c2cccc4cccc(C)c24)C3)CC1CC#N
0.22%

----------
Tested on: KRAS-mutant PDC tumor spheroid with HUVEC/MSC, viability
Assay: Anticancer human tumor 327498-153-R-J2-PDC cell line growth inhibition [KRAS2]; active = viability on the fitted dose curve at most 10% of control; inactive = the rest;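 further: spheroids exposed to agents for seven days before reading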
Conditions: second compound 0.316 µM; first compound 1 µM
Your reply should match one of these outcome classes. Y = active, N = inactive

Study these solved cases before continuing.
compound | category
COc1cc(Nc2ncc3c(n2)-c2ccc(Cl)cc2C(c2c(F)cccc2OC)=NC3)ccc1C(=O)O + CNCc1ccccc1-c1csc(C(C)Nc2nc(C)nc3cc(OC)c(OC)cc23)c1 | N
CC(=O)OC12COC1CC(O)C1(C)C(=O)C(O)C3=C(C)C(OC(=O)C(O)C(NC(=O)OC(C)(C)C)c4ccccc4)CC(O)(C(OC(=O)c4ccccc4)C21)C3(C)C (stereo not given) + C=CC(=O)N1CCN(c2nc(OCC3CCCN3C)nc3c2CCN(c2cccc4cccc(C)c24)C3)CC1CC#N | Y
CCNC(=O)CC1N=C(c2ccc(Cl)cc2)c2cc(OC)ccc2-n2c(C)nnc21 (stereo not given) + CNCc1ccccc1-c1csc(C(C)Nc2nc(C)nc3cc(OC)c(OC)cc23)c1 | N
COc1cc2nccc(Oc3ccc(NC(=O)C4(C(=O)Nc5ccc(F)cc5)CC4)cc3)c2cc1OC + CNCc1ccccc1-c1csc(C(C)Nc2nc(C)nc3cc(OC)c(OC)cc23)c1 | N

Turning to the following compound.
State the result this test recorded for O=C(c1cc(Cc2n[nH]c(=O)c3ccccc23)ccc1F)N1CCN(C(=O)C2CC2)CC1 + COc1cc2nc(C)nc(NC(C)c3cc(N)cc(C(F)(F)F)c3)c2cc1OC1CCOC1 .
N

----------
Tested on: KRAS-mutant PDC tumor spheroid with HUVEC/MSC, viability
Experiment: Anticancer human tumor 327498-153-R-J2-PDC cell line growth inhibition [KRAS2];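 further: spheroids exposed to agents for seven days before reading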
Settings: curve of first compound; second compound 3.16 µM
// pIC50 lookup, one value per entry
Entry type: numeric. Quantity: pIC50, the -log10 of concentration in molar units.

Check out these entries, answers already filled in.
compound | pIC50
O=C(c1cc(Cc2n[nH]c(=O)c3ccccc23)ccc1F)N1CCN(C(=O)C2CC2)CC1 + CNCc1ccccc1-c1csc(C(C)Nc2nc(C)nc3cc(OC)c(OC)cc23)c1 | 6.39
CCNC(=O)CC1N=C(c2ccc(Cl)cc2)c2cc(OC)ccc2-n2c(C)nnc21 (stereo not given) + COc1cc2nc(C)nc(NC(C)c3cc(N)cc(C(F)(F)F)c3)c2cc1OC1CCOC1 | 6.72
CCN1CCN(Cc2ccc(Nc3ncc(F)c(-c4cc(F)c5nc(C)n(C(C)C)c5c4)n3)nc2)CC1 + COc1cc2nc(C)nc(NC(C)c3cc(N)cc(C(F)(F)F)c3)c2cc1OC1CCOC1 | 8.35

Next, consider the following compound.
State pIC50 on KRAS-mutant PDC tumor spheroid with HUVEC/MSC, viability. Entry: Cn1nccc1Nc1nccc(-c2cc3c(s2)C(C)(C)N(CCN2CCOCC2)C3=O)n1 + C=CC(=O)N1CCN(c2nc(=O)n(-c3c(C)ccnc3C(C)C)c3nc(-c4c(O)cccc4F)c(F)cc23)C(C)C1
6.03

----------
// viability, T/C lookup, one value per entry
System: KRAS-mutant PDC tumor spheroid with HUVEC/MSC, viability
Experiment: Anticancer human tumor 327498-153-R-J2-PDC cell line growth inhibition [KRAS2];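 further: spheroids exposed to agents for seven days before reading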;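 on viability, T/C: 100% = DMSO vehicle wells so lower means fewer viable cells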
Settings: second compound 0.0316 µM; first compound 0.00316 µM; stronger effect = lower value
Please state the figure in %; there is no need to write the unit.

molecule | unit-symbol | viability, T/C
Cn1ncnc1[C@H]1c2n[nH]c(=O)c3cc(F)cc(c23)N[C@@H]1c1ccc(F)cc1 + C=CC(=O)N1CCN(c2nc(OCC3CCCN3C)nc3c2CCN(c2cccc4cccc(C)c24)C3)CC1CC#N | % | 63.3
CC(=O)Nc1cccc(-n2c(=O)n(C3CC3)c(=O)c3c(Nc4ccc(I)cc4F)n(C)c(=O)c(C)c32)c1 + C=CC(=O)N1CCN(c2nc(OCC3CCCN3C)nc3c2CCN(c2cccc4cccc(C)c24)C3)CC1CC#N | % | 58
CC(C)n1nc(-c2ccc3oc(N)nc3c2)c2c(N)ncnc21 + C=CC(=O)N1CCN(c2nc(OCC3CCCN3C)nc3c2CCN(c2cccc4cccc(C)c24)C3)CC1CC#N | % | 35.1
CN(C)C/C=C/C(=O)Nc1cc2c(Nc3ccc(F)c(Cl)c3)ncnc2cc1O[C@H]1CCOC1 + C=CC(=O)N1CCN(c2nc(OCC3CCCN3C)nc3c2CCN(c2cccc4cccc(C)c24)C3)CC1CC#N | % | 74.4

Next, consider the following molecule.
Query viability, T/C for CCN1CCN(Cc2ccc(Nc3ncc(F)c(-c4cc(F)c5nc(C)n(C(C)C)c5c4)n3)nc2)CC1 + C=CC(=O)N1CCN(c2nc(OCC3CCCN3C)nc3c2CCN(c2cccc4cccc(C)c24)C3)CC1CC#N
55.9

----------
Test system: KRAS-mutant PDC tumor spheroid with HUVEC/MSC, viability
Test: Anticancer human tumor 327498-153-R-J2-PDC cell line growth inhibition [KRAS2]; active = viability on the fitted dose curve at most 10% of control; inactive = the rest;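 further: spheroids exposed to agents for seven days before reading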
Details: second compound 0.316 µM; first compound 0.01 µM
Your reply should match one of these outcome classes. yes (active), no (inactive)

compound | category
CC(=O)Nc1cccc(-n2c(=O)n(C3CC3)c(=O)c3c(Nc4ccc(I)cc4F)n(C)c(=O)c(C)c32)c1 + COc1cc2nc(C)nc(NC(C)c3cc(N)cc(C(F)(F)F)c3)c2cc1OC1CCOC1 | no
CC(=O)Nc1cccc(-n2c(=O)n(C3CC3)c(=O)c3c(Nc4ccc(I)cc4F)n(C)c(=O)c(C)c32)c1 + CC1OCC2(CCN(c3cnc(Sc4ccnc(N)c4Cl)c(N)n3)CC2)C1N | no
Cn1ncnc1[C@H]1c2n[nH]c(=O)c3cc(F)cc(c23)N[C@@H]1c1ccc(F)cc1 + C=CC(=O)N1CCN(c2nc(OCC3CCCN3C)nc3c2CCN(c2cccc4cccc(C)c24)C3)CC1CC#N | no

State the result this test recorded for CC(=O)Nc1cccc(-n2c(=O)n(C3CC3)c(=O)c3c(Nc4ccc(I)cc4F)n(C)c(=O)c(C)c32)c1 + C=CC(=O)N1CCN(c2nc(=O)n(-c3c(C)ccnc3C(C)C)c3nc(-c4c(O)cccc4F)c(F)cc23)C(C)C1 .
no

State the result this test recorded for CC(=O)OC12COC1CC(O)C1(C)C(=O)C(O)C3=C(C)C(OC(=O)C(O)C(NC(=O)OC(C)(C)C)c4ccccc4)CC(O)(C(OC(=O)c4ccccc4)C21)C3(C)C (stereo unspecified) + C=CC(=O)N1CCN(c2nc(=O)n(-c3c(C)ccnc3C(C)C)c3nc(-c4c(O)cccc4F)c(F)cc23)C(C)C1 .
yes

State the result this test recorded for CC(=O)Nc1cccc(-n2c(=O)n(C3CC3)c(=O)c3c(Nc4ccc(I)cc4F)n(C)c(=O)c(C)c32)c1 + C=CC(=O)N1CCN(c2nc(OCC3CCCN3C)nc3c2CCN(c2cccc4cccc(C)c24)C3)CC1CC#N .
no

----------
Test system: KRAS-mutant PDC tumor spheroid with HUVEC/MSC, viability
Assay: Anticancer human tumor 327498-153-R-J2-PDC cell line growth inhibition [KRAS2]; active = viability on the fitted dose curve at most 10% of control; inactive = the rest;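 further: spheroids exposed to agents for seven days before reading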
Settings: second compound 0.316 µM; first compound 0.1 µM
Your reply should match one of these outcome classes. active, inactive

compound | category
CC1COCCN1c1cc(-c2ccnn2C)c2ccnc(-c3ccn[nH]3)c2n1 (stereo not given) + COc1cc2nc(C)nc(NC(C)c3cc(N)cc(C(F)(F)F)c3)c2cc1OC1CCOC1 | active

State the result this test recorded for CC(=O)OC12COC1CC(O)C1(C)C(=O)C(O)C3=C(C)C(OC(=O)C(O)C(NC(=O)OC(C)(C)C)c4ccccc4)CC(O)(C(OC(=O)c4ccccc4)C21)C3(C)C (stereo not given) + C=CC(=O)N1CCN(c2nc(=O)n(-c3c(C)ccnc3C(C)C)c3nc(-c4c(O)cccc4F)c(F)cc23)C(C)C1 .
active
